# IC50 values compiled below
Target: PKC epsilon (Homo sapiens, UniProt Q02156)
Construct: purchased Invitrogen P2282
Sequence (Q02156 1-737): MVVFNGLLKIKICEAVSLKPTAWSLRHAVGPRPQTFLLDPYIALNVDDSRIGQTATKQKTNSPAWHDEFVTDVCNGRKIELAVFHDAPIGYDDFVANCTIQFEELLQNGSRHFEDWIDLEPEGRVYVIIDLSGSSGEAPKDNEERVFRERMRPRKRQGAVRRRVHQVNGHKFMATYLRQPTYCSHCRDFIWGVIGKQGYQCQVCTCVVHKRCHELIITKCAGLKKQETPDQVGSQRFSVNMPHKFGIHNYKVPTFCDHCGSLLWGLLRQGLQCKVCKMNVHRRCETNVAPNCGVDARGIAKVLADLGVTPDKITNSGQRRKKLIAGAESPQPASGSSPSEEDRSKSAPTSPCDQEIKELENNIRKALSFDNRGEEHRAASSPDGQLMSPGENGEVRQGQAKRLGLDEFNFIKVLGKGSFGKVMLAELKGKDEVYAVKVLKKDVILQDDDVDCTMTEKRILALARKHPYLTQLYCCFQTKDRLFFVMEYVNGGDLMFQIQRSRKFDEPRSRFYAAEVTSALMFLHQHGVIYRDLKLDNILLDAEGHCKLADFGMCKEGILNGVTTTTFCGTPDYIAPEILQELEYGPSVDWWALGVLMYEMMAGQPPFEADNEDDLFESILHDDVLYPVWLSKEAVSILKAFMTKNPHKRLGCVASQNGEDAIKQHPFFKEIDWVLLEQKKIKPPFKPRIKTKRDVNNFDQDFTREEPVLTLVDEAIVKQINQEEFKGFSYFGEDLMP
Test: Biochemical assay for PKC epsilon (fluorescence polarization, Protein Kinase C Assay Kit, Red)
Details: read-out: IC50 μM PKCε

NC(c1ccc(C(=O)Nc2ccncc2)cc1)C1CCCN1C(=O)Cc1csc(-c2ccccc2)n1 (stereo not drawn); 0.5 to 5 µM
CN(CC(N)c1ccc(C(=O)Nc2ccncc2)cc1)C(=O)C1(c2ccc(F)c(Cl)c2)CC1 (stereo not drawn); 5 to 50 µM

Then this molecule:
Prompt: Name the reported IC50 value associated with the molecule NC(c1ccc(C(=O)Nc2ccncc2)cc1)C1CCCN1C(=O)C1(c2ccc(Cl)cc2Cl)CC1 (stereo not drawn)
Response: 5 to 50 µM

###

molecular target: human ROCKα/ROCKII mix (Homo sapiens, UniProt O75116); construct: purchased Upstate Biotechnology 14-451; experiment: Biochemical assay for ROCK (fluorescence polarization, ROCK IMAP Kit); conditions: Table 2, compounds of Formula XIII
Sequence (O75116 11-552 limits assumed): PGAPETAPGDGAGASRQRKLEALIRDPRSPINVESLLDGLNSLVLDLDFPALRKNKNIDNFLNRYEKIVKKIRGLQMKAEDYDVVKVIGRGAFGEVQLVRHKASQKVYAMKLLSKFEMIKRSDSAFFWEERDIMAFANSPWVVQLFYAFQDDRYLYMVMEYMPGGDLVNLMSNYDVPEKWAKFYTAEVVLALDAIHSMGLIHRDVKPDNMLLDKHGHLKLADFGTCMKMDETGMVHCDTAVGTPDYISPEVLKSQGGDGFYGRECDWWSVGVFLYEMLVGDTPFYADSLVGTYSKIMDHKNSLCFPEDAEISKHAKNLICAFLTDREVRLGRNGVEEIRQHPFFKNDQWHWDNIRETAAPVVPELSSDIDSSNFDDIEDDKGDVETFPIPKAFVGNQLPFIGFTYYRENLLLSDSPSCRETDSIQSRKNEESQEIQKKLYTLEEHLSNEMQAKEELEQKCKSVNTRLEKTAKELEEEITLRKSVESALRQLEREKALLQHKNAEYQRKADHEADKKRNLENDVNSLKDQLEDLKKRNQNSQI
# IC50 values compiled below

NC(CNC(=O)c1ccc2ccccc2n1)c1ccc(C(=O)Nc2ccncc2)cc1 (centres unmarked) [Compound 112]; 0.05 to 0.5 µM
NC(CNC(=O)C1CCC1)c1ccc(C(=O)Nc2ccncc2)cc1 (centres unmarked) [Compound 41]; 0.5 to 5 µM
COc1ccccc1CC(=O)NCC(N)c1ccc(C(=O)Nc2ccncc2)cc1 (centres unmarked) [Compound 138]; 0.5 to 5 µM

Prompt: Name the reported IC50 value associated with the compound NC(CNC(=O)CC1C=CCC1)c1ccc(C(=O)Nc2ccncc2)cc1 (centres unmarked) [Compound 48]
Response: 0.05 to 0.5 µM

Prompt: Entry NC(CNC(=O)C1CCc2ccccc2C1)c1ccc(C(=O)Nc2ccncc2)cc1 (centres unmarked) [Compound 164] please
Response: 0.5 to 5 µM

Prompt: Entry NC(CNC(=O)Cc1ccncc1)c1ccc(C(=O)Nc2ccncc2)cc1 (centres unmarked) [Compound 151] please
Response: 0.5 to 5 µM

Prompt: Entry NC(CNC(=O)c1ccc2ccccc2c1)c1ccc(C(=O)Nc2ccncc2)cc1 (centres unmarked) [Compound 70] please
Response: 0.05 to 0.5 µM
